Origin of values: ChEMBL document CHEMBL3425444

System: Human immunodeficiency virus 1
Assay: Antiviral activity against wild type HIV1 3B infected in human MT4 cells assessed as protection from virus-induced cytopathicity after 4 days by MTT assay
Type: functional, organism-based
Details: Human immunodeficiency virus 1, 3B, MT4, 96 h
metric_name: pEC50
Field pEC50 (float): negative decimal logarithm of the concentration in molar.

Cc1cc(C#N)cc(C)c1Oc1ccnc(NC2CCN(CC(=O)Nc3ccc(Cl)cc3)CC2)n1 | 8.21
Cc1cc(C#N)cc(C)c1Oc1ccnc(NC2CCN(CC(=O)Nc3ccc(C#N)cc3F)CC2)n1 | 8.10
Cc1cc(C#N)cc(C)c1Oc1ccnc(NC2CCN(CC(=O)Nc3ccc(S(N)(=O)=O)cc3)CC2)n1 | 8.72

(Q) Need pEC50, item "COc1ccc(NC(=O)CN2CCC(Nc3nccc(Oc4c(C)cc(C#N)cc4C)n3)CC2)cc1"
(A) 8.46
